test: soluble on expression in E. coli; label from the status in PepcDB or PDB records

| recordSequence | soluble on expression in E. coli |
| --- | --- |
| MGSDKIHHHHHHMTARQDLVDLIAAIDAGSGPARNPYWRDLAVDDSVARKAAVLMLFGALDNVPAASGKPLAPADLDVLLLERAHTLDDHPGQVAFPGGGIDPGETPIEAALREAEEETGLDSAGVEVLGAMPQLALPRGNFLVTPVLAWWHSPSPVRVVDYGESAQVFRVPVRDLLDPDNRVMATVSRAGQSFLSPAFVVNKVVVWGFTGMILNELFDHLGWSVPWDRSRLHQIDV | not soluble |
| MGSDKIHHHHHHMGKGFTGAILTVMGVKSHIATTTGKTVINDRMVTIHFHSETLLNTEGEVPGDWLRLWFPHESRPGKLYQRAYTLTNVDADAGTFDLAFVLHEPLGPASAWATRCEAGESLEVMRYPGIPFAIPDPAPRGFLFLGDLTSYPAICSILETLDGEIPATAYLIAHDPLDYTFDFPQGEHITAQWISNEQSFIDHIADTDYTDFYTWIGAESSETRAAKKHLQTHAGMPKTHMNAQGYWNKGRAMGKSN | not soluble |
| MGSDKIHHHHHHMDVIQLSNDGRCRWLEKQVMNKIFPQAIRSAKIKDIPTQYMIIDWISNDNGKVGVDLKWFKKLGVPYVKTYNDLPEGNDFVVVNTGYDSIVHEEKVLREKGVEILDKPCPFVRKLRKEFEKIDDSYQYVLLCESNHIIIKNFATIFPRDMILIQMGNYKEKLLEQSNGKPMMFISYVTFLKKHSIQVFDFINKTFPGKDHKMVDTQCMWAAGRLSPIDEIRNMSEDILKEVRYALLIGSPGSTNKSLMSLHETIIDKGLEVINIGSLRDFLDFRRKHKKEKVLLVKSPIPNQAEKPILAFLRHGYLYAYYTLWRER | not soluble |

====

test: soluble on expression in E. coli; label from the status in PepcDB or PDB records

| recordSequence | soluble on expression in E. coli |
| --- | --- |
| MSLDLKLGGQVILVVGGAGTIGSEVVKLLTEEGATAVAASRSTPLSIDASDEASVRAGIDQVIAEHGRLDGLVVSSAPAAQTLSAETADDPDTVLAAIEGKAITFMKAATVALEKMREAGHGRIVALSGMNSYKTLSTTASARNAALNVVVKNLADRHAGTGITVNAISPGFVVAEPDAEVNRANGDTTVEEVAEAIAFLLSPRTASISGEIISVGHKAKGEGHHHHHH | not soluble |
| MEQQSYTIIDETGAHARPATMLVQTASKFDSDIQLEYNGKKVNLKSIMGVMSLGVGKDAEITIYADGSDEADAIQAITDVLSKEGLTE | soluble |
| RKRNRIPLRCTICRKRKVKCDKLRPHCQQCTKTGVAHLCHYMEQTWAEEAEKELLKDNELKKLRERVKSLEKTLSKVHSSP | soluble |
| MGSDKIHHHHHHMLSRTADHLYWMARYIERAENMARVLDVTYNMSLVPNASQSETTLWEPALQIAGGVDSYRQEYGEVTAGGVVRFLAMDTKNPSSIYSTLRSARENARSVRVTLSAETWENINALWLEFSQFVGMDLMQKGLGEFCDWVKSRSHLFRGVSFGTMLRDDAFRFLRLGTFIERADNTARLLDVKYHLLLPSGEEVGGAVDYYEWSAILRAVSAFHAYQKVFNDAIEPWKVAELLVLREDMPRSLHACFSEITPILDQLNGRHSSECRRLAGELHARLRYGRMTDIFQGGLHEFLTDFITSNNNLGAEIQRTFLNAPINGLAAETE | not soluble |

====

experiment: soluble on expression in E. coli; label from the status in PepcDB or PDB records
metric: soluble on expression in E. coli

| recordSequence | readoutValue |
| --- | --- |
| MITSYEATVVTTDDIVHEVNLEGKRIGYVIKTENKETPFTVVDIDGPSGNVKTLNDGVKKMCLVHIGKNLPAEKKAEFLATLIAMKLKGEI | not soluble |
| MQRNVMSEIVYGDKQLQILIAAEKLIAEQGFQGLSMHKVAKAANMATGTIYRYFRDKDHLLIEVRLHVSQKIAEAVQANLRDDMSLQERFRTMWLNIWTLAGSCRDIISNRVQYESLPTTTCCNVRELEQKMFAKVELLFDQGKQQGIFKPLDNHLLSALSFETTVTLARQYALGFYQLDDSTLDAMIQASWDAITQH | not soluble |
| MAHHHHHHMPHEDHKKYRVQREDLPAMPHFSDFNDPRFCGTTNKQKNGILAYYQWLHCIGNWGEEHSMCKKMRWYVERMMHETWLEKWEEKRALGHFDHTVLYGVKPWKEFEPLYQPVKKNRKGAYEYWLDRDFEPLYDVDAADWRERAPILHDMFVLGKKPVSE | soluble |
| AIASIPFSNTHYRIPQGFGNLLEGLTREILREQPDNIPAFAAAYFESLLEKREKTNFDPAEWGSKVEDRFYNNHAFEEQEPPEKSDPKQEESQISGKEEETSVTILDSSEEDKEKEEVAAVKIQAAFRGHIAREEAKKMKTNSLQNEEKEENK | soluble |

====

experiment: soluble on expression in E. coli; label from the status in PepcDB or PDB records
metric: soluble on expression in E. coli

| recordSequence | metric | readoutValue |
| --- | --- | --- |
| MSLTTMKEIAEQTGVSISTVSLVLNGRDEGRVNPALAKLVRNKATELGYKINPLARSLRTNKTRILGFISEEVATTPYAGGIILGAQDAASAYGYMLFTVSTDGKASEENEIATLKRYGVDGFFYSKMSNRIAHVPESLSDYPVVMVDATDYENKVPSVEPDEFMIGYDATIRLLQADCKRIAYVGCAENMIAQDGRLAGYCTALQEAGRAFNPSLVCNVMNDGPALRAVNKLFDDEHPDGFFCFNDARAWYVYECAARRGLTVGKDISVVGVDNHRVFAETLEPQLTTVELPHYEMGYWSACKLISMIEGKDVDTSEGHHHHHH | soluble on expression in E. coli | not soluble |
| MGSDKIHHHHHHMSRHQNIPALSDVSSTNFSNIRLIATDMDGTLTRRGKFTTPLLQALEDLAAVDIKVLIVTGRSAGWVSGLSSLMPVAGAIAENGGLYFPPGNHKPVVLTPVSDLAKHRQHLATTFENLQTKFPQIQESADNRFRVTDWTFDVADLNQDELQTLDSLCQQMGWGFTYSNVQCHIKPQGQDKAVGLLQVLREYLPQYSPEQIVTVGDSPNDESLFERRYFPVSVGVANVLEYMNQLKYHPAYITNAAEGEGFCELSSYILKSLHIPS | soluble on expression in E. coli | not soluble |

====

experiment: soluble on expression in E. coli; label from the status in PepcDB or PDB records
metric: soluble on expression in E. coli

| recordSequence | metric | readoutValue |
| --- | --- | --- |
| MSSSVLSVAKFDLKKMKTVYLKVDMEYDNRKNAALAILSKLSRDLLKICSNFGGCLARPQRDLCTIMLIIDSDKLENEHLVKHLKEHHMTAFEYIFTKKIKIQIGECFVQDGFLWWKQTNLPRIRNLKFRKKFKIKNKISEIHTHCSSEGNVYIKFSAEMIRIHPFDHWILDSDERFHDFNSGPISRRIRPRWVSCLPKLGKGRIVKIHRKIPETAPFESYDQMKSYWKKTKYEFVFQYGYDLPPSEPEVYYDVLFHNGETMLYPLYCVLTGTPEVLENRVGKTMTSEALALFLKAFKEASIVICGSVLAPEDQDCQAVKAYLDVMSMSAINSSKLKKEEKVTRKSSGGGHEEHQKPYEIRKIYPKIPVGVKRSISSSSQSGLPIVKKARPGFSVSVD | soluble on expression in E. coli | not soluble |
| MGHHHHHHSHMEAPPVTMMPVTGGTINMMEYLLQGSVLDHSLESLIHRLRGLCDNMEPETFLDHEMVFLLKGQQASPFVLRARRSMDRAGAPWHLRYLGQPEMGDKNRHALVRNCVDIATSENLTDFLMEMGFRMDHEFVAKGHLFRKGIMKIMVYKIFRILVPGNTDSTEALSLSYLVELSVVAPAGQDMVSDDMKNFAEQLKPLVHLEKIDPKRLM | soluble on expression in E. coli | soluble |
| MSDSVSDAQAQSTPEGAQQKPILRVVKGNPDPTQVATLTALFASMADNAAQQSKQERERNLWGNVEERLQRPTTYNPTAFRNVSFF | soluble on expression in E. coli | not soluble |
| MSLKDFRPLILVAEDDDSNFKLIKAIIGKKCDILWAKNGEEMLNLYREHTQDAHAILMDIKMPIMNGLEATRIIREEGASLPIIMQTAYAFSSDRENAMQAGASEVLVKPITVSALRGCLSSYFPEIKWEGHHHHHH | soluble on expression in E. coli | soluble |

====

experiment: soluble on expression in E. coli; label from the status in PepcDB or PDB records
metric: soluble on expression in E. coli

| recordSequence | metric | readoutValue |
| --- | --- | --- |
| MVFRCHYILVLEGFITQKNRLEHGGKDAGVEPPPYSNAAHHLTPWNDKRAIEAQELLKEFGIHHDSAANGVFLPYKVNEYVTTEVLHIGNHCTDYMKEVTKVLKEVKEYGGTQADAVAALHDIRIRLLDGSLKLNSPK | soluble on expression in E. coli | not soluble |
| MAIIPKNYARLESGYREKALKIYPWVCGRCSREFVYSNLRELTVHHIDHDHTNNPEDGSNWELLCLYCHDHEHSKYTEADQYGTTVIAGEDAQKDVGEAKYNPFADLKAMMNKKK | soluble on expression in E. coli | not soluble |
| MGSDKIHHHHHHMINRKPFFIELELTYKCSQQCIYCHNPPKDLKFYIADKVPKPRSVIEMNELNLSEWISVINQIKRLDEKYEGIMDVVITGGEPLLRSDLEEILSYVTRQKLRHMLLSSGEPISDDRITKLLESGLEKIRINLTSHKYVFNIQSPIMHIKNEVAKKINIAKKFKDFGVKEVGGNIVLTSYYLDFLEEIAELAYKSNLDWIEIHSVIKVGHGYINQKFIVPDPNDERTIQEKLKRLIEIYGENFIQNYVDTDILYSRIPIPTNWGEVGLVIAPNGDIYPSSEATSIPLSKLGNIKNDSLVEIWFNNLLLNKIRSLSFLREPCKSCEVKKLCRGGFRFNAYITKNDLFAPDPSCQIVKDYIGKS | soluble on expression in E. coli | not soluble |
